- System under test: T1, meditope-enabled M5A (M5A 8M)
- T1 construct: Eight point mutations in the light chain; wild-type heavy chain; expressed in NS0 cells; also called meditope-enabled anti-CEA antibody
- T1 sequence (light, as listed by the source, chain 1 of 2): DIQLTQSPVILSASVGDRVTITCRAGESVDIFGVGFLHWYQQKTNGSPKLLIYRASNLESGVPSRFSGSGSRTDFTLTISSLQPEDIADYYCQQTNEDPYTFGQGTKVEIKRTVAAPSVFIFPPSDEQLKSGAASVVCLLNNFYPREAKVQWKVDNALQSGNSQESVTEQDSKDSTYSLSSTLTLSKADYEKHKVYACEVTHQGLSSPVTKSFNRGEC
- T1 sequence (heavy, as listed by the source, chain 2 of 2): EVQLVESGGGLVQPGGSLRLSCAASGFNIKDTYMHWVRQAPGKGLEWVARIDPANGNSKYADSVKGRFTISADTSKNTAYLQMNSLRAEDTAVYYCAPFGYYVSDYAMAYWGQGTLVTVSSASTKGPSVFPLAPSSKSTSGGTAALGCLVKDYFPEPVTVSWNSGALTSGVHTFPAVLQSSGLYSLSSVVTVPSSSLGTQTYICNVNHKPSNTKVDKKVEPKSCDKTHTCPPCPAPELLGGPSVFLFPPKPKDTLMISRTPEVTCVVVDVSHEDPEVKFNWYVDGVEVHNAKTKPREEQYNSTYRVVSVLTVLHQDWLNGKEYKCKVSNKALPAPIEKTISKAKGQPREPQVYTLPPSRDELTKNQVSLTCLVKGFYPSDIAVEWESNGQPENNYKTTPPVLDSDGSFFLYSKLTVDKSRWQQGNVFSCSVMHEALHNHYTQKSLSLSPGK
- Experimental protocol: SPR, kinetic fit, meditope at 10, 2, 0.4 and 0.08 uM over M5A 8M IgG immobilized at 5000 RU
Bridges are numbered along the chain shown (N, C = ends). Where no end group is shown, it is not given here. [ ]: non-standard residue; d: D form. Dip = N[C@H](C(=O)O)C(c1ccccc1)c1ccccc1
Parameter: pKd
API: returns pKd as number; meaning -log10 of concentration in mol/L.

Prompt: // Input: CQFD[Dip]STRRLKC (disulfide 1-12, also called CQFDA(diphenyl)STRRLKC; 5-diphenyl meditope) [meditope 18 (C-QFDXSTRRLK-C)] . Output its pKd only.
Response: 6.36

All figures here come from patent US20140113348A1.
